Assay: Chromophore titration, fit to single binding site isotherm: DFHBI-1T
Conditions: n=1 titration; ± SD of the fit; Table 3C
Method: Table 3A-C. Brightness and chromophore affinities of selected mFAP variants. Fluorescence brightness measurements at 10 μM (top table) and 100 nM (middle table) chromophore concentrations were normalized from 0 to 1 across all three chromophores (DFHBI, DFHBI-1T, and DFHO), and the normalized values for two protein concentrations tested for each chromophore at each chromophore concentration were averaged and standard deviations of the average computed. […] Values with “N/D” were not determined.
measured_metric: pKd
# pKd is unitless: minus log10 of the molar concentration; print number only

The cases that follow already have their pKd on record.
mFAP2.2: SEQ ID NO:41 (protein, (1)..(1) optionally absent) MSRAAQLLPGTWQVTMTNEDGQTSQGQMHFQPRSPYTMDVVAQGTISDGRPIVGYGKVTVKTPDTLDVDITYPSLGNIKAQGQITMDSPTQFKFDATTKGAGNFTGRLTGTLQRQE = 4.36
mFAP1: SEQ ID NO:33; variant of b11L5F.2 (protein, (1)..(1) optionally absent) MSRAAQLLPGTWQTTMTNEDGQTSQGQMHFQPRSPYTLDVVAQGTISDGRPISGYGKVTVKTDDTLDVDITYPSLGNIKVQGQVTMDSPTQFKFDATTSDGKKLTGTLQRQE = 4.97

Value of measured pKd for the entry mFAP2a: SEQ ID NO:66 (protein, (1)..(1) optionally absent) MSRAAQLLPGTWQATFTNEDGQTSQGQWHFQPRSPYTMDIVAQGTISDGRPIVGYGKATVKTPDTLDIDITYPSLGNIKAQGQITMDSPTQFKWDATTKGENDFHGRLTGTLQRQE : 5.43

Reference source: patent US20210047373A1
